# Tested on: Spodoptera frugiperda larvae
# Assay summary: Spodoptera frugiperda test (treatment by watering)
# Type: in vivo
# Protocol conditions: 20 ppm; 14 d; treatment by watering
Hi there, I'd appreciate the recorded Kill rate after 14d in % for every entry that follows.
Reply with just the number (in %).

Query: State the recorded Kill rate after 14d in % for this entry: O=C(Nc1c(Cl)cc(Cl)cc1C1=NOCCO1)c1cc(Br)nn1-c1ncccc1Cl
Response: 95

Query: State the recorded Kill rate after 14d in % for this entry: O=C(Nc1c(Cl)cc(Cl)cc1C1=NOCCO1)c1cc(C(F)(F)F)nn1-c1cccc(Cl)n1
Response: 95

Query: State the recorded Kill rate after 14d in % for this entry: Cc1cc(Br)cc(C2=NOCCO2)c1NC(=O)c1cc(Cl)nn1-c1ncccc1Cl
Response: 90

Query: State the recorded Kill rate after 14d in % for this entry: Cc1cc(Cl)cc(C2=NOCCO2)c1NC(=O)c1cc(C(F)(F)F)nn1-c1ncccc1Cl
Response: 98

Query: State the recorded Kill rate after 14d in % for this entry: Cc1cccc(C2=NOCCO2)c1NC(=O)c1cc(C(F)(F)F)nn1-c1ncccc1Cl
Response: 95

Query: State the recorded Kill rate after 14d in % for this entry: Cc1cc(Cl)cc(C2=NOCCN2)c1NC(=O)c1cc(Cl)nn1-c1ncccc1Cl
Response: 95

Query: State the recorded Kill rate after 14d in % for this entry: Cc1cc(Cl)cc(C2=NOCCO2)c1NC(=O)c1cc(Cl)nn1-c1ncccc1Cl
Response: 95

Query: State the recorded Kill rate after 14d in % for this entry: Cc1cc(Cl)cc(C2=NOCCN2)c1NC(=O)c1cc(C(F)(F)F)nn1-c1ncccc1Cl
Response: 95
